Taken from patent US20260108527A1.

Test system: CHP134
Experiment: CHP134 CellTiter-Glo (CTG) Assay
Assay type: cell-based
Details: Homo sapiens, CHP-134, 120 h; viable cells by CellTiter-Glo after 5 days
pIC50: −log10 of the molar value.
Decision: pIC50 beneath 7 gives 1.0; pIC50 meeting or exceeding 7 gives 0.0.

Structure as smiles | Answer label
COc1ccc2c(c1)[C@]1(C[C@H]1c1ccc3c(Nc4nc(N(C)C)ncc4OC)n[nH]c3c1)C(=O)N2 | 1.0
CCOc1cc2ccccc2nc1Nc1n[nH]c2cc([C@@H]3C[C@@]34C(=O)Nc3ccc(OC)cc34)ccc12 | 1.0
CCOc1ccc(-c2nccs2)cc1Nc1n[nH]c2cc([C@@H]3C[C@@]34C(=O)Nc3ccc(OC)cc34)ccc12 | 0.0
CCOc1cc2c(ccc[n+]2[O-])cc1Nc1n[nH]c2cc([C@@H]3C[C@@]34C(=O)Nc3ccc(OC)cc34)ccc12 | 1.0
COc1ccc2c(c1)[C@]1(C[C@H]1c1ccc3c(Nc4cc5c(cc4OC)S(=O)(=O)CC5)n[nH]c3c1)C(=O)N2 | 1.0
CCOc1ncc(-c2nccs2)nc1Nc1n[nH]c2cc([C@@H]3C[C@@]34C(=O)Nc3ccc(OC)cc34)ccc12 | 0.0

---

Tested on: CHP134
Experiment: CHP134 CellTiter-Glo (CTG) Assay
Format: cell-based
Conditions: Homo sapiens, CHP-134, 120 h; viable cells by CellTiter-Glo after 5 days
Quantity: log10(IC50) (log10 of the value in nM)

Structure as smiles | Quantity | Value observed
COc1ccc2c(c1)[C@]1(C[C@H]1c1ccc3c(Nc4cc(-c5cnn(CC(F)F)c5)ccc4OC)n[nH]c3c1)C(=O)N2 | log10(IC50) | 2.31
CCOc1cnc(C#CC(C)(C)O)nc1Nc1n[nH]c2cc([C@@H]3C[C@@]34C(=O)Nc3ccc(OC)cc34)ccc12 | log10(IC50) | 2.95
COc1ccc2c(c1)[C@]1(C[C@H]1c1ccc3c(Nc4nc(-c5cnn(C)c5)cnc4OC)n[nH]c3c1)C(=O)N2 | log10(IC50) | 1.70
COc1ccc2c(c1)[C@]1(C[C@H]1c1ccc3c(Nc4cc(-c5cnn(C)c5)cnc4OC)n[nH]c3c1)C(=O)N2 | log10(IC50) | 2.23
COc1ccc2c(c1)[C@]1(C[C@H]1c1ccc3c(Nc4cc(-c5nccs5)ccc4OC)n[nH]c3c1)C(=O)N2 | log10(IC50) | 1.95
CCOc1ccc(-c2nccs2)nc1Nc1n[nH]c2cc([C@@H]3C[C@@]34C(=O)Nc3ccc(OC)cc34)ccc12 | log10(IC50) | 1.22
COc1ccc2c(c1)[C@]1(C[C@H]1c1ccc3c(Nc4ccc(S(C)(=O)=O)cc4OC)n[nH]c3c1)C(=O)N2 | log10(IC50) | 1.95

---

Target: human recombinant Aurora A (Homo sapiens)
Construct: purchased ThermoFisher PR5935A
Sequence (O14965 whole entry): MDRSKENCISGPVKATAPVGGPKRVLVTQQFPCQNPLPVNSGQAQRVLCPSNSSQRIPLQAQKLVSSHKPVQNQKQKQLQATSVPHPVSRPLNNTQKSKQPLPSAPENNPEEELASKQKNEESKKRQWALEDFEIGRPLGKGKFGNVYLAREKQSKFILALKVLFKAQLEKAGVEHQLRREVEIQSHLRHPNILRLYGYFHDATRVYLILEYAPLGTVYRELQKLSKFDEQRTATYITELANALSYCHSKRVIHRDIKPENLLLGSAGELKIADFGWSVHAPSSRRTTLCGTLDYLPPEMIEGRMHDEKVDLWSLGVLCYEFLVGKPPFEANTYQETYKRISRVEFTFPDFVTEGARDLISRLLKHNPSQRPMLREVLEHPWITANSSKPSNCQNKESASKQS
Assay: Aurora A Kinase Biochemical Assay (ADP-Glo)
Settings: selectivity ratio; Aurora A 2.5 nM, 20 μM ATP

Structure as smiles | [Aurora A IC50 (nM)]/[PLK4 IC50 (nM)]
CCOc1cc(-n2cncn2)ccc1Nc1n[nH]c2cc([C@@H]3C[C@@]34C(=O)Nc3ccc(OC)cc34)ccc12 | 2540.3949
CCOc1cnc(-c2nccs2)cc1Nc1n[nH]c2cc([C@@H]3C[C@@]34C(=O)Nc3ccc(OC)cc34)ccc12 | 14827.5862
COc1ccc2c(c1)[C@]1(C[C@H]1c1ccc3c(Nc4cc(-c5ccsn5)ccc4OC)n[nH]c3c1)C(=O)N2 | 916.8947
CCOc1cc(-n2cncn2)cnc1Nc1n[nH]c2cc([C@@H]3C[C@@]34C(=O)Nc3ccc(OC)cc34)ccc12 | 2756.5515
CCOc1ncc(-c2nccs2)nc1Nc1n[nH]c2cc([C@@H]3C[C@@]34C(=O)Nc3ccc(OC)cc34)ccc12 | 727.2189
CCOc1cc(-c2cnccn2)ccc1Nc1n[nH]c2cc([C@@H]3C[C@@]34C(=O)Nc3ccc(OC)cc34)ccc12 | 10956.01173
COc1ccc2c(c1)[C@]1(C[C@H]1c1ccc3c(Nc4cc(-c5cocn5)cnc4OC)n[nH]c3c1)C(=O)N2 | 157.8304
COc1ccc2c(c1)[C@]1(C[C@H]1c1ccc3c(Nc4cc(-c5cnn(C)c5)cnc4OC)n[nH]c3c1)C(=O)N2 | 992.1456
COc1ccc2c(c1)[C@]1(C[C@H]1c1ccc3c(Nc4cc(-c5cscn5)ccc4OC)n[nH]c3c1)C(=O)N2 | 146.5230
COc1ccc2c(c1)[C@]1(C[C@H]1c1ccc3c(Nc4ccc(-c5nnn(C)n5)cc4OC)n[nH]c3c1)C(=O)N2 | 1000
COc1ccc2c(c1)[C@]1(C[C@H]1c1ccc3c(Nc4nc(-c5ncco5)cnc4OC)n[nH]c3c1)C(=O)N2 | 360
CCOc1ccc(-c2nccs2)cc1Nc1n[nH]c2cc([C@@H]3C[C@@]34C(=O)Nc3ccc(OC)cc34)ccc12 | 1496.6799
COc1ccc2c(c1)[C@]1(C[C@H]1c1ccc3c(Nc4cc(-c5ccon5)ccc4OC)n[nH]c3c1)C(=O)N2 | 325.6348
CCS(=O)(=O)c1ccc(Nc2n[nH]c3cc([C@@H]4C[C@@]45C(=O)Nc4ccc(OC)cc45)ccc23)c(OC)c1 | 567.6936
